# Method description: Inhibition of beta-lactamase AmpC
Metric: IC50 (µM)

(A) O=c1oc2c(O)c(O)cc3c(=O)oc4c(O)c(O)cc1c4c23 [ELLAGIC ACID]
(B) CCCC12CN(C(=O)c3ccc(OC)cc3)CC(C)(CN(C(=O)c3ccc(OC)cc3)C1)C2=O
Just curious, which one has the larger IC50 reading, A or B ? Answer by stating the label of the chosen item.
A
(A: 146 µM, B: 15 µM)

====

# Method description: Inhibition of beta-lactamase AmpC
pIC50: −log10 of the molar value.
Metric: pIC50

# count of solved cases: 5
>>> measured_result("N[C@@H](Cc1cc(-c2ccc(Cl)cc2Cl)cc(CP(=O)(O)O)c1O)C(=O)O")
3.80
>>> measured_result("CC(C)C[C@H](N)c1nnc(S(=O)(=O)Cc2ccc(F)cc2)o1")
3.22
>>> measured_result("O=C(Oc1cccnc1)c1cc2ccccc2oc1=O")
4.26
>>> measured_result("C[C@H]1[C@H]2C=C[C@@H]1[C@@H](C(=O)O)[C@@H]2c1c2ccc(=O)c(O)c-2oc2c(O)c(O)ccc12")
4.15
>>> measured_result("CCOC(=O)SC1=N/C(=C/c2ccc(N(C)C)cc2)C(=O)S1")
4.22

(A) Cc1occc1C(=O)n1nnc2ccccc21
(B) O=C(O)C1=CC(=C(c2ccc(O)c(C(=O)O)c2)c2ccc(O)c(C(=O)O)c2)C=CC1=O
(C) CCOC(=O)/C(C(C)=O)=C1\OC(=O)c2ccccc21
List items by pIC50 in falling order. Put the labels in the requested order and write them down.
A, C, B

====

# Method description: Inhibition of malate dehydrogenase
Below, each entry is listed alongside its reported IC50.

>>> measured_result("CCCC12CN(C(=O)c3ccc(OC)cc3)CC(C)(CN(C(=O)c3ccc(OC)cc3)C1)C2=O")
"> 600 µM"
>>> measured_result("O=c1oc2c(O)c(O)cc3c(=O)oc4c(O)c(O)cc1c4c23")
"55 µM"
>>> measured_result("CC(C)(C)OC(=O)NCc1nnc(S(=O)(=O)Cc2ccc(Cl)cc2Cl)o1")
"> 600 µM"
>>> measured_result("CC(C)C[C@H](N)c1nnc(S(=O)(=O)Cc2ccc(F)cc2)o1")
"> 600 µM"
>>> measured_result("CCOC(=O)SC1=N/C(=C/c2ccc(N(C)C)cc2)C(=O)S1")
"200 µM"

API: the following record is the query input.
Given item `CC(C)(C)OC(=O)NCCc1nnc(S(=O)(=O)Cc2ccc(Cl)cc2Cl)o1` , the value recorded as its IC50 is > 600 µM

====

# Method description: Inhibition of beta-lactamase AmpC
Metric: Ki (µM)

Some entries whose results are on file:
>>> measured_result("O=C(O)c1ccc2c(c1)C(=O)N(C(Cc1ccc(O)cc1)C(=O)O)C2=O (racemic)")
140
>>> measured_result("O=C(O)c1ccc2c(c1)C(=O)N(C(Cc1ccccc1)C(=O)O)C2=O (racemic)")
210
>>> measured_result("O=C(O)c1ccc2c(c1)C(=O)N([C@@H](Cc1ccc(O)cc1)C(=O)O)C2=O")
158

(P) O=C(O)c1ccc2c(c1)C(=O)N(CCc1ccc(O)cc1)C2=O
(Q) O=C(O)c1ccc2c(c1)C(=O)N([C@H](Cc1c[nH]c3ccccc13)C(=O)O)C2=O
(R) O=C(O)C(Cc1ccccc1)N1C(=O)c2ccccc2C1=O (racemic)
Task field, ranking: reported Ki, descending order. List the labels, following the order given in the request.
R, P, Q

(P) O=C(O)c1ccc2c(c1)C(=O)N([C@H](Cc1cccc3ccccc13)c1nnn[nH]1)C2=O
(Q) O=C(O)c1ccc2c(c1)C(=O)N([C@H](Cc1ccc3ccccc3c1)C(=O)O)C2=O
Identify the entry with the smaller Ki: P or Q . Which one? Tell me its label.
Q
(Q: 14 µM, P: 41 µM)
